Listing of recorded pIC50 by entry.
# measured_on: hRIPK1 (aa 1-375) fusion protein (Homo sapiens, UniProt Q13546)
# Construct: hRIPK1 (aa 1-375) fusion protein
# protocol_summary: ADP-Glo kinase assay: catalytic activity of RIPK1 (autophosphorylation, conversion of ATP to ADP)
pIC50: −log10 of the molar value.
observed_property: pIC50

• Cc1ccc([C@@H]2CCON2C(=O)[C@H]2CC[C@H](Cc3ccc(C4(O)COC4)cc3)CC2)cn1 [compound 348] = 7.43
• O=C([C@H]1CC[C@H](Cn2cnc3ccccc32)CC1)N1OCC[C@H]1c1cc(F)cc(F)c1 [compound 8] = 7.72
• Cc1ccc([C@@H]2CCON2C(=O)[C@H]2CC[C@H](Cc3cc(-n4ccnc4C)ncn3)CC2)cc1 [compound 136] = 7.59
• N#Cc1cc2ncn(C[C@H]3CC[C@H](C(=O)N4OCC[C@H]4c4cnccn4)CC3)c2cc1F [compound 97] = 7.11
• Cc1cncc([C@@H]2CCON2C(=O)[C@H]2CC[C@H](Cc3cc(F)c4nc(C)nn4c3)CC2)c1 [compound 333] = 7.52
• N#Cc1ccc2cnn(C[C@H]3CC[C@H](C(=O)N4OCC[C@H]4c4ccccn4)CC3)c2c1 [compound 215] = 7.70
• N#Cc1ccc2c(c1)ncn2C[C@H]1CC[C@H](C(=O)N2OCC[C@H]2c2cncc(F)c2)CC1 [compound 6] = 6.81
• Cc1nc2ccc(C[C@H]3CC[C@H](C(=O)N4OCC[C@H]4c4cc(F)cc(F)c4)CC3)cn2n1 [compound 223] = 7.72
• Cc1cn2nc(C[C@H]3CC[C@H](C(=O)N4OCC[C@H]4c4cc(F)cc(C#N)c4)CC3)cc(C)c2n1 [compound 290] = 7.96
• Cc1ncc(F)cc1C[C@H]1CC[C@H](C(=O)N2OCC[C@H]2c2cnccn2)CC1 [compound 180] = 7.49
• Cc1nc([C@@H]2CCON2C(=O)[C@H]2CC[C@H](Cn3ncc4ccc(C(N)=O)cc43)CC2)cs1 [Compound 234] = 7.31
• COc1cncc([C@@H]2CCON2C(=O)[C@H]2CC[C@H](Cn3ccc4cc(C(N)=O)ccc43)CC2)n1 [compound 253] = 7.74
• N#Cc1cc(C[C@H]2CC[C@H](C(=O)N3OCC[C@H]3c3ccc(F)cc3)CC2)ccc1F [compound 242] = 7.68
• N#Cc1ccc2nn(C[C@H]3CC[C@H](C(=O)N4OCC[C@H]4c4cc(F)cc(F)c4)CC3)cc2c1 [compound 58] = 7.59
• Cn1ncc2ccc(C[C@H]3CC[C@H](C(=O)N4OCC[C@H]4c4cc(F)cc(F)c4)CC3)cc21 [compound 295] = 8.22

###

Property: IC50; scope: individual compounds
# measured_on: hRIPK1 (aa 1-375) fusion protein (Homo sapiens, UniProt Q13546)
# Construct: hRIPK1 (aa 1-375) fusion protein
# protocol_summary: ADP-Glo kinase assay: catalytic activity of RIPK1 (autophosphorylation, conversion of ATP to ADP)
observed_property: IC50 (nM)

• Cc1ncc(C[C@H]2CC[C@H](C(=O)N3OCC[C@H]3c3cnc(C)c(F)c3)CC2)cn1 = 43
• N#Cc1cc(F)cc([C@@H]2CCON2C(=O)[C@H]2CC[C@H](Cn3cnc4cc(F)ccc43)CC2)c1 = 25
• N#Cc1cnc2cnn(C[C@H]3CC[C@H](C(=O)N4OCC[C@H]4c4ccccn4)CC3)c2c1 = 51
• N#Cc1cc(F)cc([C@@H]2CCON2C(=O)[C@H]2CC[C@H](Cn3ccc4cnccc43)CC2)c1 = 46
• N#Cc1cnc2ccn(C[C@H]3CC[C@H](C(=O)N4OCC[C@H]4c4cncc(F)c4)CC3)c2c1 = 22
• Cn1cc(C[C@H]2CC[C@H](C(=O)N3OCC[C@H]3c3cc(F)cc(C#N)c3)CC2)cn1 = 21
• Cc1c2ccccc2nn1C[C@H]1CC[C@H](C(=O)N2OCC[C@H]2c2cc(F)cc(F)c2)CC1 = 20
• N#Cc1cc(F)cc([C@@H]2CCON2C(=O)[C@H]2CC[C@H](Cn3ccc4ncc(OCCO)cc43)CC2)c1 = 6
• Cc1cc(C)n(C[C@H]2CC[C@H](C(=O)N3OCC[C@H]3c3cc(F)cc(C#N)c3)CC2)n1 = 27
• Cc1ncc(C[C@H]2CC[C@H](C(=O)N3OCC[C@H]3c3cnccn3)CC2)cn1 = 83
• N#Cc1cc(F)cc([C@@H]2CCON2C(=O)[C@H]2CC[C@H](Cn3ncc4c(F)cc(C#N)cc43)CC2)c1 = 19
• Cc1ccc([C@@H]2CCON2C(=O)[C@H]2CC[C@H](Cc3cc(C)ncc3C)CC2)cn1 = 33
• N#Cc1cc2c(cnn2C[C@H]2CC[C@H](C(=O)N3OCC[C@H]3c3cc(F)cc(F)c3)CC2)cc1F = 14
• Cc1nc([C@@H]2CCON2C(=O)[C@H]2CC[C@H](Cn3ncc4ccc(C#N)cc43)CC2)cs1 = 21
• Cc1cc(C[C@H]2CC[C@H](C(=O)N3OCC[C@H]3c3cc(F)cc(C#N)c3)CC2)cn2ncnc12 = 18

###

Form field: IC50 (one value per entry).
# measured_on: hRIPK1 (aa 1-375) fusion protein (Homo sapiens)
# Construct: hRIPK1 (aa 1-375) fusion protein
# Sequence (Q13546 1-375): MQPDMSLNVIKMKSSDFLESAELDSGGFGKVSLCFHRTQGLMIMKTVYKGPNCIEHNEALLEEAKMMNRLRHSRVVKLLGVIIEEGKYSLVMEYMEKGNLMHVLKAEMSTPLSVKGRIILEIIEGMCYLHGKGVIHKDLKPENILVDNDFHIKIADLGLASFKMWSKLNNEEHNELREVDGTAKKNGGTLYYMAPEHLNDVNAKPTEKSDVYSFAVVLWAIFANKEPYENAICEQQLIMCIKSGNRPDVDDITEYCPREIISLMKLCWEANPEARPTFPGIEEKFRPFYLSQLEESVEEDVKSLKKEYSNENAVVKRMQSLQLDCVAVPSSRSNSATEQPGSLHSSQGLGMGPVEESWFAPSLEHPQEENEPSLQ
# protocol_summary: ADP-Glo kinase assay: catalytic activity of RIPK1 (autophosphorylation, conversion of ATP to ADP)
observed_property: IC50

• N#Cc1cc2cnn(C[C@H]3CC[C@H](C(=O)N4OCC[C@H]4c4cc(F)cc(F)c4)CC3)c2cc1F = 15 nM
• Cc1ccc(CC23CCC(C(=O)N4OCC[C@H]4c4cc(F)cc(C#N)c4)(CC2)C3)cc1C(N)=O = 20 nM
• Cc1nc([C@@H]2CCON2C(=O)[C@H]2CC[C@H](Cn3ncc4cc(C#N)ccc43)CC2)cs1 = 19 nM
• Cc1nn(C[C@H]2CC[C@H](C(=O)N3OCC[C@H]3c3cc(F)cc(F)c3)CC2)c2cc(C(N)=O)cc(F)c12 = 23 nM
• N#Cc1cc(F)cc([C@@H]2CCON2C(=O)[C@H]2CC[C@H](Cn3cnc4c(F)cc(C(N)=O)cc43)CC2)c1 = 60 nM
• COc1cc(CC2CCC(C(=O)N3OCC[C@H]3c3cnccn3)CC2)cn2nc(C)nc12 (stereo partly shown) = 35 nM
• Cc1cc(C[C@H]2CC[C@H](C(=O)N3OCC[C@H]3c3cnc(C)c(F)c3)CC2)cnn1 = 64 nM

###

The entries below come with measured pIC50 values attached.
# measured_on: hRIPK1 (aa 1-375) fusion protein (Homo sapiens, UniProt Q13546)
# Construct: hRIPK1 (aa 1-375) fusion protein
# protocol_summary: ADP-Glo kinase assay: catalytic activity of RIPK1 (autophosphorylation, conversion of ATP to ADP)
pIC50: −log10 of the molar value.
observed_property: pIC50

* Cc1cn(C[C@H]2CC[C@H](C(=O)N3OCC[C@H]3c3cc(F)cc(F)c3)CC2)c2cc(C(N)=O)ccc12 | 7.57
* Cc1cc([C@@H]2CCON2C(=O)[C@H]2CC[C@H](Cn3ccc4c(F)cc(C#N)cc43)CC2)co1 | 7.74
* Cc1nnc2ccc(C[C@H]3CC[C@H](C(=O)N4OCC[C@H]4c4cc(F)cc(C#N)c4)CC3)cn12 | 7.46
* Cc1ncc(C[C@H]2CC[C@H](C(=O)N3OCC[C@H]3c3cc(F)cc(F)c3)CC2)cc1C#N | 7.92
* Cc1ccc([C@@H]2CCON2C(=O)[C@H]2CC[C@H](Cc3ccn4nc(C)nc4c3)CC2)cn1 | 6.96
* Cc1ncn(C[C@H]2CC[C@H](C(=O)N3OCC[C@H]3c3cc(F)cc(F)c3)CC2)c1C | 7.49
* Cc1ncn(C[C@H]2CC[C@H](C(=O)N3OCC[C@H]3c3cncc(F)c3)CC2)c1C#N | 6.94
